Where do the numbers come from? From PubChem BioAssay AID1159580.

Kindly supply the reported normalized growth values for the records listed here.
test: chemical genetic growth profiling, strain panel (AID 1159580);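 also: tested at 20 µM; growth read once vehicle control cultures reached saturation at 30 °C; 1 = growth at the plate median or of vehicle wells; lower values mean less growth of the strain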; details: S. cerevisiae deletion strains, growth OD, locus YNR049C, strain mso1, stronger effect = lower value
In all, about 5,500 compounds went through this assay and about 2,000 (36%) were called active. Roughly 18% stayed inconclusive and do not appear here. This is one part of the list.
One number for each entry.

Recorded results for 7 molecules are shown here.
molecule	normalized growth
CC(=O)Oc1ccccc1C(=O)Oc1ccccc1C(=O)O	1.01
CC(C)=CC1C(CO)C1(C)C (stereo not drawn)	1.03
CCCc1nn(C)c2c(=O)[nH]c(-c3cc(S(=O)(=O)N4CCN(C)CC4)ccc3OCC)nc12	0.992
CCC(=O)NCC[C@@H]1CCc2ccc3c(c21)CCO3	1
COc1ccc(-c2cc(=O)c3c(O)c(OC)c(O[C@H]4O[C@H](CO[C@@H]5O[C@@H](C)[C@H](O)[C@@H](O)[C@H]5O)[C@@H](O)[C@H](O)[C@H]4O)cc3o2)cc1	1
CN[C@H]1CC[C@@H](c2ccc(Cl)c(Cl)c2)c2ccccc21	0.996
CC(C)(C)NCC(O)COc1cccc2c1C[C@H](O)[C@H](O)C2 (stereo partly drawn)	1.01

// next item, normalized growth requested
Problem: What value of measured normalized growth is listed for COC(=O)[C@H]1[C@H]2C[C@H]3c4[nH]c5cc(OC)ccc5c4CCN3C[C@H]2C[C@@H](OC(=O)c2cc(OC)c(OC)c(OC)c2)[C@@H]1OC ?
Solution: 1.02
